Listing: Ki of selected compounds
molecular target: Human Recombinant Glucocorticoid Receptor (Homo sapiens, UniProt P04150); construct: This GR was a full-length steroid hormone receptor; test: Glucocorticoid receptor binding displacement assay with 3H-dexamethasone; conditions: displacement of 2.5 nM 3H-dexamethasone, 2.5 hrs at 4° C.; Ki from IC50 by Cheng-Prusoff; read-out: GR Binding Ki
Sequence (P04150 whole entry): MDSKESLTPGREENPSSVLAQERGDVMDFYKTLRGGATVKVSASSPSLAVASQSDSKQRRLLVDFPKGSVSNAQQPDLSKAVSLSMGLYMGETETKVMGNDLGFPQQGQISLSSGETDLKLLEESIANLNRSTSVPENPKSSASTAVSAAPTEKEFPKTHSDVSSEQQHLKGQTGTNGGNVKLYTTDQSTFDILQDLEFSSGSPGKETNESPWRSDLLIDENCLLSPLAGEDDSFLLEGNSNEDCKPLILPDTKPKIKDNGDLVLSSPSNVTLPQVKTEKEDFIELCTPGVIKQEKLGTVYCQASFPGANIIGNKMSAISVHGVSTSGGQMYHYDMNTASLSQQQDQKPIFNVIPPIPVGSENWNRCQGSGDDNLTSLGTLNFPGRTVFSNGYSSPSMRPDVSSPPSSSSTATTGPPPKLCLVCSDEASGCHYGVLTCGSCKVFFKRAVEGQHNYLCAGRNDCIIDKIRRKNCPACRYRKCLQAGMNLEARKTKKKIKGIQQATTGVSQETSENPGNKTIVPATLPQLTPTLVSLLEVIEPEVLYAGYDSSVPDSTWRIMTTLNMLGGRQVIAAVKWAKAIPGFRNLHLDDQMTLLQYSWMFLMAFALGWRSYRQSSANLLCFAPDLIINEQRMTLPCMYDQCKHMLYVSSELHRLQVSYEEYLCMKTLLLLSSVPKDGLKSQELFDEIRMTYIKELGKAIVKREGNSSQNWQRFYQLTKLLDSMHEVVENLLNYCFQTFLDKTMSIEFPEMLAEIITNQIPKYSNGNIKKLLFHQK
Assay readout: Ki

- Compound: "O=c1[nH]c(C2=CCC(c3ccccc3)CC2)c(Cc2ccccc2Cl)c(=O)[nH]1 (stereo not shown)"
  Assay readout: "Ki"
  Val: "0.005 to 0.01 µM"
- Compound: "Cc1cc(Cc2c(=O)[nH]c(=O)[nH]c2[C@H]2CC[C@H](c3ccccc3)CC2)ccn1"
  Assay readout: "Ki"
  Val: "> 0.01 µM"
- Compound: "Cc1ccnc(Cc2c(=O)[nH]c(=O)[nH]c2[C@H]2CC[C@H](c3ccccc3)CC2)c1"
  Assay readout: "Ki"
  Val: "> 0.01 µM"
- Compound: "COCCn1c(=O)[nH]c([C@H]2CC[C@H](c3ccccc3)CC2)c(Cc2cccc(C(F)(F)F)c2)c1=O [Compound 13g]"
  Assay readout: "Ki"
  Val: "> 0.01 µM"
- Compound: "O=c1[nH]c([C@H]2CC[C@H](c3ccccc3)CC2)c(Cc2cccc(C(F)(F)F)c2)c(=O)n1CCO [Compound 13f]"
  Assay readout: "Ki"
  Val: "> 0.01 µM"
- Compound: "Cc1cccc(Cc2c(=O)[nH]c(=S)[nH]c2[C@H]2CC[C@H](c3ccccc3)CC2)c1 [Compound 12g]"
  Assay readout: "Ki"
  Val: "> 0.01 µM"
- Compound: "Cc1cccc(Cc2c(=O)n(C)c(=O)[nH]c2[C@H]2CC[C@H](c3ccccc3)CC2)c1 [Compound 13a]"
  Assay readout: "Ki"
  Val: "0.005 to 0.01 µM"
- Compound: "O=c1[nH]c(=O)c(Cc2ccc(F)cc2Cl)c([C@H]2CC[C@H](c3ccccc3)CC2)[nH]1"
  Assay readout: "Ki"
  Val: "> 0.01 µM"
- Compound: "O=c1[nH]c(C2=CCC(c3ccccc3)CC2)c(Cc2ccccc2)c(=O)[nH]1 (stereo not shown)"
  Assay readout: "Ki"
  Val: "> 0.01 µM"
- Compound: "O=c1[nH]c(=O)c(Cc2cc(C(F)(F)F)ccn2)c([C@H]2CC[C@H](c3ccccc3)CC2)[nH]1"
  Assay readout: "Ki"
  Val: "> 0.01 µM"

----------
Listing: pKi of selected compounds
target: Human Recombinant Glucocorticoid Receptor (Homo sapiens, UniProt P04150); construct: This GR was a full-length steroid hormone receptor; assay: Glucocorticoid receptor binding displacement assay with 3H-dexamethasone; details: displacement of 2.5 nM 3H-dexamethasone, 2.5 hrs at 4° C.; Ki from IC50 by Cheng-Prusoff; read-out: GR Binding Ki
pKi: −log10 of the molar value.

- Chemical string: "O=c1[nH]c(=O)c(Cc2ncccc2Cl)c([C@H]2CC[C@H](c3ccccc3)CC2)[nH]1"
  pKi: "< 8.00"
- Chemical string: "O=c1[nH]c(=O)c(Cc2cccc(C(F)(F)F)c2)c([C@H]2CC[C@H](c3ccccc3)CC2)[nH]1"
  pKi: "8.00 to 8.30"
- Chemical string: "O=c1[nH]c(=O)c(Cc2ccccc2)c([C@H]2CC[C@H](c3ccccc3)CC2)[nH]1"
  pKi: "> 8.30"
